- TARGET OF ASSAY: Estrogen Receptor-Alpha (ERα) (Homo sapiens, UniProt P03372)
- Construct: endogenous in cells; host or cells: MCF-7 (MCF7) cells
- Sequence (P03372 1-595): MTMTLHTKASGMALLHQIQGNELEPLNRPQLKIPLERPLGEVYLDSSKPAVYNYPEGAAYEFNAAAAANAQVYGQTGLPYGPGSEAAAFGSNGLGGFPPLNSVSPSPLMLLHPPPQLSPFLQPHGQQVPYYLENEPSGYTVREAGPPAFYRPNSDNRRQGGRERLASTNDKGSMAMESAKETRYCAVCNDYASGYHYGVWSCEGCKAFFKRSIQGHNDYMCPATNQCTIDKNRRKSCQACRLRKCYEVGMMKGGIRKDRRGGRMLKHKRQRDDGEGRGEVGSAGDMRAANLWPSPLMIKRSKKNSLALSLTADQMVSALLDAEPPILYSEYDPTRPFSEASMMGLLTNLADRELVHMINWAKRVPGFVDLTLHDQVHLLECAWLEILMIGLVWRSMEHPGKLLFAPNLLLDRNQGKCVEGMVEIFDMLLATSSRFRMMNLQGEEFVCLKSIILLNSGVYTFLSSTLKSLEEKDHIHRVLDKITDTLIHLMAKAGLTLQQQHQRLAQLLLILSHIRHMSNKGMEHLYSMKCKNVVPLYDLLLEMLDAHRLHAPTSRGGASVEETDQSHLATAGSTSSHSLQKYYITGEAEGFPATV
- PROTOCOL NOTES: Estrogen Receptor-Alpha (ERα) degradation assay in MCF-7 cells (western blot / In-Cell Western)
- Format: cell-based
- COND: MCF7, read-out: ER Dmax
A collection of molecules and their measured Dmax

The recorded Dmax for entry COCCOCCOc1c(CCN2CCCN(CCCCOc3ccc([C@@H]4c5ccc(O)cc5CC[C@@H]4c4ccccc4)cc3)CC2)ccc2c1CN([C@H]1CCC(=O)NC1=O)C2=O [compound 8] equals 50 to 75%

The recorded Dmax for entry COc1cc(N2CCN(CC3CCN(c4ccc([C@H]5c6ccc(O)cc6CC[C@H]5c5ccccc5)cc4)CC3)CC2)cc2c1C(=O)N(C1CCC(=O)NC1=O)C2 (some centres unmarked) [compound 31] equals < 50%

The recorded Dmax for entry COc1cc(N2CCN(Cc3cccc(COc4ccc([C@@H]5c6ccc(O)cc6CC[C@@H]5c5ccccc5)cc4)n3)CC2)cc2c1C(=O)N(C1CCC(=O)NC1=O)C2 (some centres unmarked) [compound 17] equals 50 to 75%

The recorded Dmax for entry O=C1CCC(N2Cc3cc(N4CCN(CCC5CC(Oc6ccc([C@@H]7c8ccc(O)cc8CC[C@@H]7c7ccccc7)cc6)C5)CC4)cc(OC(F)F)c3C2=O)C(=O)N1 (some centres unmarked) [compound 23] equals 50 to 75%

The recorded Dmax for entry COc1cc(N2CCN(CCCCCOc3ccc([C@@H]4c5ccc(O)cc5CC[C@@H]4c4ccccc4)cc3)CC2)cc2c1C(=O)N([C@H]1CCC(=O)NC1=O)C2 [compound 14] equals ≥ 75%

The recorded Dmax for entry COc1cc(N2CCN(CC(=O)C3CC(Oc4ccc([C@@H]5c6ccc(O)cc6CC[C@@H]5c5ccccc5)cc4)C3)CC2)cc2c1C(=O)N(C1CCC(=O)NC1=O)C2 (some centres unmarked) [compound 26] equals ≥ 75%

The recorded Dmax for entry O=C1CCC(N2Cc3cc(N4CCN(CCC5CCN(c6ccc([C@@H]7c8ccc(O)cc8CC[C@@H]7c7ccccc7)cc6)CC5)CC4)cc(OC(F)F)c3C2=O)C(=O)N1 (some centres unmarked) [compound 22] equals ≥ 75%

The recorded Dmax for entry COc1cc(N2CCN(CCC3CCN(c4ccc([C@@H]5c6ccc(O)cc6CC[C@@H]5c5ccccc5)cc4)CC3)CC2)cc2c1C(=O)N(C1CCC(=O)NC1=O)C2 (some centres unmarked) [compound 10] equals ≥ 75%

====

- TARGET OF ASSAY: Estrogen Receptor-Alpha (ERα) (Homo sapiens)
- Construct: endogenous in cells; host or cells: MCF-7 (MCF7) cells
- PROTOCOL NOTES: Estrogen Receptor-Alpha (ERα) degradation assay in MCF-7 cells (western blot / In-Cell Western)
- Type: cell-based
- COND: read-out: ER DC50
MEASURED METRIC: DC50

The recorded DC50 for entry COCCOc1c(N2CCN(CC3CCN(c4ccc([C@@H]5c6ccc(O)cc6CC[C@@H]5c5ccccc5)cc4)CC3)CC2)ccc2c1CN(C1CCC(=O)NC1=O)C2=O (stereo partly drawn) equals 1 to 10 nM

The recorded DC50 for entry COCCOCCOc1c(CCN2CCCN(CCCCOc3ccc([C@@H]4c5ccc(O)cc5CC[C@@H]4c4ccccc4)cc3)CC2)ccc2c1CN([C@H]1CCC(=O)NC1=O)C2=O equals 1 to 10 nM

The recorded DC50 for entry COc1cc(N2CCN(C3CC4CC(Oc5ccc([C@@H]6c7ccc(O)cc7CC[C@@H]6c6ccc(F)cc6)cc5)CC4C3)CC2)cc2c1C(=O)N(C1CCC(=O)NC1=O)C2 (stereo partly drawn) equals < 1 nM

====

A collection of molecules and their measured Dmax
- TARGET OF ASSAY: Estrogen Receptor-Alpha (ERα) (Homo sapiens)
- Construct: endogenous in cells; host or cells: MCF-7 (MCF7) cells
- PROTOCOL NOTES: Estrogen Receptor-Alpha (ERα) degradation assay in MCF-7 cells (western blot / In-Cell Western)
- Assay type: cell-based
- COND: MCF7, read-out: ER Dmax

COc1c(N2CCN(CCCCCOc3ccc([C@@H]4c5ccc(O)cc5CC[C@@H]4c4ccccc4)cc3)CC2)ccc2c1CN(C1CCC(=O)NC1=O)C2=O (stereo partly shown): ≥ 75%
COc1cc(N2CCN(CCC3CCN(c4ccc([C@@H]5c6ccc(O)cc6CC[C@@H]5c5ccccc5)cc4F)CC3)CC2)cc2c1C(=O)N(C1CCC(=O)NC1=O)C2 (stereo partly shown): ≥ 75%
COCCOCCOc1c(N2CCN(CC3CCN(c4ccc([C@H]5c6ccc(O)cc6CC[C@H]5c5ccccc5)cc4)CC3)CC2)ccc2c1CN(C1CCC(=O)NC1=O)C2=O (stereo partly shown): < 50%
COc1cc(N2CCN(CC3CCN(c4c(F)cc([C@H]5c6ccc(O)cc6CC[C@H]5c5ccccc5)cc4F)CC3)CC2)cc2c1C(=O)N(C1CCC(=O)NC1=O)C2 (stereo partly shown): 50 to 75%
COCCOCCOc1c(N2CCN(CC3CCN(c4ccc([C@@H]5c6ccc(O)cc6CC[C@@H]5c5ccccc5)cc4)CC3)CC2)ccc2c1CN(C1CCC(=O)NC1=O)C2=O (stereo partly shown): < 50%

The recorded Dmax for entry COCCOc1c(N2CCN(CC3CCN(c4ccc([C@@H]5c6ccc(O)cc6CC[C@@H]5c5ccccc5)cc4)CC3)CC2)ccc2c1CN(C1CCC(=O)NC1=O)C2=O (stereo partly shown) equals 50 to 75%

The recorded Dmax for entry O=C1CCC(N2C(=O)c3ccc(N4CCN(CC5CCN(c6ccc([C@@H]7c8ccc(O)cc8CC[C@@H]7c7ccccc7)cc6F)CC5)CC4)cc3C23CC3)C(=O)N1 (stereo partly shown) equals 50 to 75%

The recorded Dmax for entry COc1cc(N2CCN(CCC3(O)CC(Oc4ccc([C@@H]5c6ccc(O)cc6CC[C@@H]5c5ccccc5)cc4)C3)CC2)cc2c1C(=O)N(C1CCC(=O)NC1=O)C2 (stereo partly shown) equals ≥ 75%

The recorded Dmax for entry COc1cc(N2CCN(CCCCCOc3ccc([C@@H]4c5ccc(O)cc5CC[C@@H]4c4ccccc4)cc3)CC2)cc2c1C(=O)N([C@@H]1CCC(=O)NC1=O)C2 equals ≥ 75%

The recorded Dmax for entry COCCOCCOc1c(N2CCN(CCCCCOc3ccc([C@@H]4c5ccc(O)cc5CC[C@@H]4c4ccccc4)cc3)CC2)ccc2c1CN(C1CCC(=O)NC1=O)C2=O (stereo partly shown) equals ≥ 75%

The recorded Dmax for entry O=C1CCC(N2Cc3cc(N4CCN(CCCC(F)(F)COc5ccc([C@@H]6c7ccc(O)cc7CC[C@@H]6c6ccccc6)cc5)CC4)cc(OC(F)F)c3C2=O)C(=O)N1 (stereo partly shown) equals 50 to 75%

The recorded Dmax for entry COc1cc(N2CCN(CC3CCN(c4ccc([C@@H]5c6ccc(O)cc6CC[C@@H]5c5ccccc5)cc4)CC3)CC2)cc2c1C(=O)N(C1CCC(=O)NC1=O)C2 (stereo partly shown) equals ≥ 75%

The recorded Dmax for entry COCCOCCOc1c(CCN2CCCN(CCCCOc3ccc([C@H]4c5ccc(O)cc5CC[C@H]4c4ccccc4)cc3)CC2)ccc2c1CN([C@H]1CCC(=O)NC1=O)C2=O equals 50 to 75%

The recorded Dmax for entry O=C1CCC(n2nc3cc(N4CCN(CCCCCOc5ccc([C@@H]6c7ccc(O)cc7CC[C@@H]6c6ccccc6)cc5)CC4)ccn3c2=O)C(=O)N1 (stereo partly shown) equals < 50%

The recorded Dmax for entry COc1cc(N2CCN(CCCCCOc3ccc([C@H]4c5ccc(O)cc5CC[C@H]4c4ccccc4)cc3)CC2)cc2c1C(=O)N(C1CCC(=O)NC1=O)C2 (stereo partly shown) equals 50 to 75%

The recorded Dmax for entry COc1cc(N2CCN(CCCC(F)(F)COc3ccc([C@@H]4c5ccc(O)cc5CC[C@@H]4c4ccccc4)cc3)CC2)cc2c1C(=O)N(C1CCC(=O)NC1=O)C2 (stereo partly shown) equals ≥ 75%
